What IC50 was measured for each of the following?
System: Chromodomain Y-like protein 2 (Homo sapiens)
Sequence (Q8N8U2 whole entry): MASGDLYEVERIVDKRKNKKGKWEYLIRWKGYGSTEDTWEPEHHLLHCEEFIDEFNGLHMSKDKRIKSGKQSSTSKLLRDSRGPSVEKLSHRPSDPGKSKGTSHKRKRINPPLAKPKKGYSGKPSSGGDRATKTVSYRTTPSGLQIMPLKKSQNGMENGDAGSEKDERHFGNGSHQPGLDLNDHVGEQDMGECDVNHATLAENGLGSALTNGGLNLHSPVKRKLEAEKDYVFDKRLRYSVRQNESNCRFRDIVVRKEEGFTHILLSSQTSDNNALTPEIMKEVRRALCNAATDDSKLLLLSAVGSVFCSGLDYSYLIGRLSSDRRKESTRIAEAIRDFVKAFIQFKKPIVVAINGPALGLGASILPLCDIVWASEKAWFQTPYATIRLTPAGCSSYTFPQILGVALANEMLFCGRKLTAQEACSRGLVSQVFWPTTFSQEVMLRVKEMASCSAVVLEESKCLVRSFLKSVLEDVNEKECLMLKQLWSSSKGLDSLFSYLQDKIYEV
Test method notes: Antagonist activity at recombinant human C-terminal His-tagged CDYL2 chromodomain (1 to 75 residues) expressed in Escherichia coli Rosetta BL21(DE3)pLysS using biotin-labeled UNC4195 measured after 30 mins by AlphaScreen assay
Numbered stars: 1 amine (or outer) side, 2 acyl side, 3 side chain; on linkers, the order of the positions; unused ones are H or OH. Square brackets hold non-standard residues; d marks the D form. Peptide text beside a SMILES is read from it. * marks the point of attachment. X17 = CC(=O)N(CCCC[C@H](N[*:1])C(=O)[*:2])C1CC2CCC1C2; X5 = O=C([C@H](CCCCNC1C2CC3CC(C2)CC1C3)N[*:1])[*:2]; X15 = O=C([C@H](CCCCNC1CN2CCC1CC2)N[*:1])[*:2]; X14 = CCCN(CCCC[C@H](N[*:1])C(=O)[*:2])C(C)C; X8 = O=C([C@H](CCCCNC1CC2CCC1C2)N[*:1])[*:2]; Phe(4-CH2NH2) = NCc1ccc(C[C@H](N)C(=O)O)cc1; X19 = CN(CCCC[C@H](N[*:1])C(=O)[*:2])C1CNC1; Acetyl(2-naphthyl) = O=C(Cc1ccc2ccccc2c1)*; Benzoyl(4-tBu) = CC(C)(C)c1ccc(C(=O)*)cc1; Lys(Et2) = CCN(CC)CCCC[C@H](N)C(=O)O; Benzoyl(4-OMe) = COc1ccc(C(=O)*)cc1; X18 = O=C(Cc1c[nH]c2ccccc12)*; Boc = CC(C)(C)OC(=O)*; Bz = O=C(c1ccccc1)*
Numbers only, in nM.

Completed entries (count: 5):
[[record]]
compound = "CCN(CC)CCCC[C@H](NC(=O)[C@H](CC(C)C)NC(=O)[C@H](C)NC(=O)[C@H](Cc1ccc(CN)cc1)NC(=O)c1ccc(C(C)(C)C)cc1)C(=O)N[C@@H](CO)C(=O)OC ({Benzoyl(4-tBu)}-[Phe(4-CH2NH2)]AL[Lys(Et2)]S-OMe)"
experimental_value = 75

[[record]]
compound = "COC(=O)[C@H](CO)NC(=O)[C@H](CCCCN(C(C)=O)C1CC2CCC1C2)NC(=O)[C@H](CC(C)C)NC(=O)[C@H](C)NC(=O)[C@H](Cc1ccccc1)NC(=O)CNC(=O)c1ccccc1 (stereo partly specified) (Bz-GFAL[X17]S-OMe)"
experimental_value = 38000

[[record]]
compound = "CCCN(CCCC[C@H](NC(=O)[C@H](CC(C)C)NC(=O)[C@H](C)NC(=O)[C@H](Cc1ccccc1)NC(=O)c1ccc(C(C)(C)C)cc1)C(=O)N[C@@H](CO)C(=O)OC)C(C)C ({Benzoyl(4-tBu)}-FAL[X14]S-OMe)"
experimental_value = 110

[[record]]
compound = "CCN(CC)CCCC[C@H](NC(=O)[C@H](CC(C)C)NC(=O)[C@H](C)NC(=O)[C@H](Cc1ccccc1)NC(=O)Cc1c[nH]c2ccccc12)C(=O)N[C@@H](CO)C(=O)OC (X18-FAL[Lys(Et2)]S-OMe)"
experimental_value = 110

[[record]]
compound = "COC(=O)[C@H](CO)NC(=O)[C@H](CCCCN(C)C1CNC1)NC(=O)[C@H](CC(C)C)NC(=O)[C@H](C)NC(=O)[C@H](Cc1ccccc1)NC(=O)CNC(=O)c1ccccc1 (Bz-GFAL[X19]S-OMe)"
experimental_value = 8600


Report IC50 for each item below.
1. COC(=O)[C@H](CO)NC(=O)[C@H](CCCCNC1CC2CCC1C2)NC(=O)[C@H](CC(C)C)NC(=O)[C@H](C)NC(=O)[C@H](Cc1ccccc1)NC(=O)CNC(=O)c1ccccc1 (stereo partly specified) (Bz-GFAL[X8]S-OMe)
2. CCN(CC)CCCC[C@H](NC(=O)[C@H](CC(C)C)NC(=O)[C@H](C)NC(=O)[C@H](Cc1ccccc1)NC(=O)c1ccc(OC)cc1)C(=O)N[C@@H](CO)C(=O)OC ({Benzoyl(4-OMe)}-FAL[Lys(Et2)]S-OMe)

[5000, 260]

Report IC50 for each item below.
1. CCN(CC)CCCC[C@H](NC(=O)[C@H](CC(C)C)NC(=O)[C@H](C)NC(=O)[C@H](Cc1ccccc1)NC(=O)Cc1ccc2ccccc2c1)C(=O)N[C@@H](CO)C(=O)OC ({Acetyl(2-naphthyl)}-FAL[Lys(Et2)]S-OMe)
2. COC(=O)[C@H](CO)NC(=O)[C@H](CCCCNC1CN2CCC1CC2)NC(=O)[C@H](CC(C)C)NC(=O)[C@H](C)NC(=O)[C@H](Cc1ccccc1)NC(=O)CNC(=O)c1ccccc1 (stereo partly specified) (Bz-GFAL[X15]S-OMe)
3. CCN(CC)CCCC[C@H](NC(=O)[C@H](CC(C)C)NC(=O)[C@H](C)NC(=O)[C@H](Cc1ccc(CNC(=O)OC(C)(C)C)cc1)NC(=O)c1ccc(C(C)(C)C)cc1)C(=O)N[C@@H](CO)C(=O)OC ({Benzoyl(4-tBu)}-[Phe(4-CH2NH2)](Boc)AL[Lys(Et2)]S-OMe)
4. COC(=O)[C@H](CO)NC(=O)[C@H](CCCCNC1C2CC3CC(C2)CC1C3)NC(=O)[C@H](CC(C)C)NC(=O)[C@H](C)NC(=O)[C@H](Cc1ccccc1)NC(=O)CNC(=O)c1ccccc1 (stereo partly specified) (Bz-GFAL[X5]S-OMe)

1. 84
2. 24000
3. 160
4. 14000
